Measured phenotypic distance, listed per entry.
System: E28 (patient-derived glioblastoma stem cells of classical subtype);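 further: cell Painting imaging in 384-well plates, CellProfiler features reduced to at least 20 principal components, Euclidean distance versus same-plate DMSO vehicle wells (0.1% v/v), median over six images per well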
Measurement notes: phenotypic distance (Euclidean, principal components) from DMSO controls (arbitrary units); higher = stronger morphological change
Experimental setup: 1000 nM; exposure time: 72 h
Where a name gives a salt, the structure may show the parent alone.
Please respond with just the number, no unit label.

Past entries and their recorded results:
>  <Compound>
Nc1nc(Cl)nc2c1ncn2[C@@H]1O[C@H](CO)[C@@H](O)[C@@H]1F

>  <phenotypic distance>
3.17

$$$$
>  <Compound>
CCN(CC)Cc1ccc(C(=O)N(CCc2ccccc2OC)[C@@H]2CCNC2)cc1

>  <phenotypic distance>
0.721

$$$$
>  <Compound>
COc1cc2c(c(OC)c1OC)-c1ccc(OC)c(=O)cc1[C@@H](NC(C)=O)CC2

>  <phenotypic distance>
4.51

$$$$
>  <Compound>
CNCCCC12CCC(c3ccccc31)c1ccccc12 [Maprotiline hydrochloride]

>  <phenotypic distance>
0.525

$$$$
>  <Compound>
CN(c1nccc(=O)[nH]1)C1CCN(c2nc3ccccc3n2Cc2ccc(F)cc2)CC1

>  <phenotypic distance>
0.693

$$$$

The reported phenotypic distance of the compound COc1cc2ncnc(Nc3cccc(Br)c3)c2cc1OC was 1.23

The reported phenotypic distance of the compound CC(C)(C)C1CCN(C(=O)n2ncc(C(O)(c3ccccc3)c3ccccc3)n2)CC1 was 0.668

The reported phenotypic distance of the compound CN[C@@H]1[C@@H](O)[C@@H](O[C@@H]2[C@@H](O)[C@H](O[C@H]3OC(CN)=CC[C@H]3N)[C@@H](N)C[C@H]2N)OC[C@]1(C)O [Sisomicin sulfate] was 0.259

Hey, just so you know, these numbers are from the supplement of paper PMC13207355.
